- Target or test system: DN-IV quality control recombinant protein (produced by the company) (dengue virus)
- Run description: BLI, antibody on AMC sensor
Label class 1 when koff is strictly below 0.0002 s⁻¹; at or above that, label class 0.

# strict comparison: is reported koff < 0.0002 s⁻¹? input = Mutation 1-46 (antibody, V domains shown) VH: EVQLQQPGPELVKPGASVKMSCKASGYTFTSSVIHWVRQKPGQGLEWIGYMNPYNDGLKYNEKFIGKAILTSDKSSSTAYMQLSSLTSEDSAVYYCTREGLFYVMDYWGQGTSVTVSS VL: QIVLTQSPAIMSASPGEKVTMTCSATSSVSYMHWYQQKSGTSPKRWIYDTSKLASGVPVRFSGSGSGTSYSLTISSMEAEDAATYFCQQWRSDLPTFGAGTKLELKR
class 0

# strict comparison: is reported koff < 0.0002 s⁻¹? input = Mutation 1-2 (antibody, V domains shown) VH: EVQLQQPGPELVKPGASVKMSCKASGYTFTSYVIHWVRQKPGQGLEWIGYMNPYNDGLKYNEKFIGKAILTSDKSSSTAYMQLSSLTSEDSAVYYCTREGLFYVMDYWGQGTSVTVSS VL: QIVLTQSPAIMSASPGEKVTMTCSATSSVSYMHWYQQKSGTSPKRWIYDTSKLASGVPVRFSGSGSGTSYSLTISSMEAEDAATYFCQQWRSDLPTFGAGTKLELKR
class 1

# strict comparison: is reported koff < 0.0002 s⁻¹? input = Mutation 1-45 (antibody, V domains shown) VH: EVQLQQPGPELVKPGASVKMSCKASGYTFTSTVIHWVRQKPGQGLEWIGYMNPYNDGIKYNEKFIGKAILTSDKSSSTAYMQLSSLTSEDSAVYYCTKEGLFYVFDYWGQGTSVTVSS VL: QIVLTQSPAIMSASPGEKVTMTCSATSSLSYMHWYQQKSGTSPKRWIYDSSKLASGVPVRFSGSGSGTSYSLTISSMEAEDAATYFCQWWRSDLPTFGAGTKLELKR
class 1

# strict comparison: is reported koff < 0.0002 s⁻¹? input = Mutation 1-32 (antibody, V domains shown) VH: EVQLQQPGPELVKPGASVKMSCKASGYTFTSYVIHWVRQKPGQGLEWIGYMNPYNDGIKYNEKFIGKAILTSDKSSSTAYMQLSSLTSEDSAVYYCTKEGLFYVMDYWGQGTSVTVSS VL: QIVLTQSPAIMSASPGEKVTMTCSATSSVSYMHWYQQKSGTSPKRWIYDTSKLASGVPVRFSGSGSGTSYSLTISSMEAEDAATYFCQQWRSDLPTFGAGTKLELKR
class 0

# strict comparison: is reported koff < 0.0002 s⁻¹? input = WT 1-19 (antibody, V domains shown) VH: EVQLQQPGPELVKPGASVKMSCKASGYTVTSYVIHWVRQKPGQGLEWIGYMNAYNDGIKYNDKFIGKAILTSDKSSSTAYMQLSSLTSEDSAVYYCTKEGLFYVMDYWGQGTSVTVSS VL: QIVLTQSPAIMSASPGEKVTMTCSGTSSVSYMHWYQQKSGTSPKRWIYDSSKLASPVPVRFSGSGSGTSYSLTISSMEAEDAATYFCQQWRSVLPTFGAGTKLELKR
class 1

# strict comparison: is reported koff < 0.0002 s⁻¹? input = Mutation 1-1 (antibody, V domains shown) VH: EVQLQQPGPELVKPGASVKMSCKASGYTFTSSVIHWVRQKPGQGLEWIGYMNPYNDGIKYNEKFIGKAILTSDKSSSTAYMQLSSLTSEDSAVYYCTKEGLFYVFDYWGQGTSVTVSS VL: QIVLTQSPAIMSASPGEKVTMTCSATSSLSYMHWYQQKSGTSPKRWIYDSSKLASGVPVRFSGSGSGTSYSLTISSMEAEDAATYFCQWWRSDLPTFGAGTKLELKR
class 1

# strict comparison: is reported koff < 0.0002 s⁻¹? input = Mutation 1-8 (antibody, V domains shown) VH: EVQLQQPGPELVKPGASVKMSCKASGYTFTSYVIHWVRQKPGQGLEWIGYMNPYNDGIKYNEKFIGKAILTSDKSSSTAYMQLSSLTSEDSAVYYCTREGLFYVMDYWGQGTSVTVSS VL: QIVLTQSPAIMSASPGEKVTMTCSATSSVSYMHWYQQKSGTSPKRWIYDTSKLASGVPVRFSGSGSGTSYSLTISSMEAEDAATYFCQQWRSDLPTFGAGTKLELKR
class 1

# strict comparison: is reported koff < 0.0002 s⁻¹? input = WT 1-11 (antibody, V domains shown) VH: EVQLQQPGPELVKPGASVKMSCKASGYTVTSTVIHWVRQKPGQGLEWIGYMNAYNDGIKYNDKFIGKAILTSDKSSSTAYMQLSSLTSEDSAVYYCTREGLFYVMDYWGQGTSVTVSS VL: QIVLTQSPAIMSASPGEKVTMTCSGTSSISYMHWYQQKSGTSPKRWIYDTSKLASPVPVRFSGSGSGTSYSLTISSMEAEDAATYFCQYWRSVLPTFGAGTKLELKR
class 0

# strict comparison: is reported koff < 0.0002 s⁻¹? input = Mutation 1-43 (antibody, V domains shown) VH: EVQLQQPGPELVKPGASVKMSCKASGYTFTSSVIHWVRQKPGQGLEWIGYMNPYNDGIKYNEKFIGKAILTSDKSSSTAYMQLSSLTSEDSAVYYCTKEGLFYVMDYWGQGTSVTVSS VL: QIVLTQSPAIMSASPGEKVTMTCSATSSLSYMHWYQQKSGTSPKRWIYDTSKLASGVPVRFSGSGSGTSYSLTISSMEAEDAATYFCQYWRSDLPTFGAGTKLELKR
class 0

# strict comparison: is reported koff < 0.0002 s⁻¹? input = Mutation 1-18 (antibody, V domains shown) VH: EVQLQQPGPELVKPGASVKMSCKASGYTFTSTVIHWVRQKPGQGLEWIGYMNPYNDGLKYNEKFIGKAILTSDKSSSTAYMQLSSLTSEDSAVYYCTKEGLFYVFDYWGQGTSVTVSS VL: QIVLTQSPAIMSASPGEKVTMTCSATSSLSYMHWYQQKSGTSPKRWIYDSSKLASGVPVRFSGSGSGTSYSLTISSMEAEDAATYFCQYWRSDLPTFGAGTKLELKR
class 0
